Biological target: furin, P09958;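 note: purified furin at 1:10 enzyme:substrate in 50 mM HEPES pH 7.5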
Sequence (P09958 whole entry): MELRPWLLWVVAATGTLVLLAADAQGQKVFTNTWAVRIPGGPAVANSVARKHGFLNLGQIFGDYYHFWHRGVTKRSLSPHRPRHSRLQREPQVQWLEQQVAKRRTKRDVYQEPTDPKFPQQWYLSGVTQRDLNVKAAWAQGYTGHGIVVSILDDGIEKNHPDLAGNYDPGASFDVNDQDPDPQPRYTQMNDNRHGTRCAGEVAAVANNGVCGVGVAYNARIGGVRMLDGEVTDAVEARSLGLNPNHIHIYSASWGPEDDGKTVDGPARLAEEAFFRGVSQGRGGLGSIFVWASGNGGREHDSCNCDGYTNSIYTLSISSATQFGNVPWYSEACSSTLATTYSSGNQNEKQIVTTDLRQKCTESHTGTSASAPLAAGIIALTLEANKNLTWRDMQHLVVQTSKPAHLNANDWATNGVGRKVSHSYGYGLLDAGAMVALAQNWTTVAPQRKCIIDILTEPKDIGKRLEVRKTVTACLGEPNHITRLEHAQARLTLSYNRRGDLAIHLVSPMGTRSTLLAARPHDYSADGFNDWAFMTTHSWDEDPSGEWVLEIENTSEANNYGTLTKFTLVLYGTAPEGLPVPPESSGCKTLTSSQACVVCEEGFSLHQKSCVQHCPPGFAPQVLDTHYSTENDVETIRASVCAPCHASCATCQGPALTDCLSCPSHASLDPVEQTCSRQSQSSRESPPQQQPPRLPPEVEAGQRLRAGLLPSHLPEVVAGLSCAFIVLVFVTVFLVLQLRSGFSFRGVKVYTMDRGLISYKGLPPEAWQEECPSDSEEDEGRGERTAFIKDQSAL
Assay: furin cleavage Z-score vs untreated control; higher = more cleavage, active = 3.5 or more, inactive = 1 or less, 8 variable residues between constant flanks
Settings: 15 min
This is one part of the list. How many sequences the whole screen found active is unknown.
# cutoff -0.2 applies to furin cleavage Z-score; >= gives True, < gives False

Some solved cases for reference:
residue string: CAEVDVQARDAGNASASA [FS-1628]
label class: True
--
residue string: CAFKHRRARFAGNASASA [FS-767]
label class: True
--
residue string: CAEVVTSTEVAGNASASA [HC2232]
label class: True
--
residue string: CADSHYQDVLAGNASASA [HC1401]
label class: False
--
residue string: CARPERGARGAGNASASA [FS-2737]
label class: True
--
residue string: CARPERYRRHAGNASASA [FS-491]
label class: True

Does CATTPCSNSWAGNASASA [HC1901] have a reported furin cleavage Z-score of at least -0.2?
True

Does CAVVCCSWSYAGNASASA [HC2048] have a reported furin cleavage Z-score of at least -0.2?
False

Does CASQARLGRIAGNASASA [FS-301] have a reported furin cleavage Z-score of at least -0.2?
False

Does CALLLFAGVDAGNASASA [HC348] have a reported furin cleavage Z-score of at least -0.2?
False

Does CAGCIITSLTAGNASASA [HC681] have a reported furin cleavage Z-score of at least -0.2?
False

Does CAVEGERGFFAGNASASA [EK8] have a reported furin cleavage Z-score of at least -0.2?
False

Does CARSKRDYTPAGNASASA [FS-1928] have a reported furin cleavage Z-score of at least -0.2?
True

Does CAMTHRWNRFAGNASASA [FS-1545] have a reported furin cleavage Z-score of at least -0.2?
True

Does CARPERKRRDAGNASASA [FS-1066] have a reported furin cleavage Z-score of at least -0.2?
True
